Where these numbers come from: ChEMBL document CHEMBL1143219

Experiment: Clearance in rat
Assay type: ADME, organism-based
Conditions: in vivo
reported_endpoint: clearance (mL/min/kg)
Give bare numbers, in mL/min/kg.

Request: Return reported clearance. Input compound: Cn1c(SCC(=O)N2CCC[C@H]2C(=O)Nc2ccccc2-c2ccccc2)nc2ccccc21
Response: 3.7

---

Molecular target: Orexin receptor type 2 (Homo sapiens) (UniProt O43614)
Sequence (O43614 whole entry): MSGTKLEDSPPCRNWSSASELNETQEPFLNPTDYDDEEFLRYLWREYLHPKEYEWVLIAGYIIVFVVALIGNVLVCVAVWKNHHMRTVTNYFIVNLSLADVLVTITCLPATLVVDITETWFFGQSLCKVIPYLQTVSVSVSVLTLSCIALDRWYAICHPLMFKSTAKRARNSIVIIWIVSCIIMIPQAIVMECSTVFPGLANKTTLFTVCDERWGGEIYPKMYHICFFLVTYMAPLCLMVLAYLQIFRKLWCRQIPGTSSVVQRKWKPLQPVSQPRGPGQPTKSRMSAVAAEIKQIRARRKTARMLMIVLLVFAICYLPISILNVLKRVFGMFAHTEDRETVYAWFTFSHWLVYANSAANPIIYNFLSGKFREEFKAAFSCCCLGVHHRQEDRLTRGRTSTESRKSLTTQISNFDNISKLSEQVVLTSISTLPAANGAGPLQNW
Assay: Antagonist activity at human OX2R expressed in CHOK1 cells assessed as effect on calcium mobilization
Format: functional, cell-based
Conditions: CHO-K1
For each of the compounds below, state its Activity.
Answers are plain numbers, in nM.

smiles_repr | unit_of_measure | Activity
O=C(Nc1cccc(-c2ccccc2)c1)[C@@H]1CCCN1C(=O)CSc1nc2ccccc2[nH]1 | nM | 2640
Cc1ccc2nc(SCC(=O)N3CCC[C@H]3C(=O)Nc3ccccc3-n3cccc3)n(C)c2c1 | nM | 8
O=C(Nc1ccccc1Oc1ccccc1)[C@@H]1CCCN1C(=O)CSc1nc2ccccc2[nH]1 | nM | 16

Lab note: each compound below needs its Activity filled in.
1. Cn1c(CCC(=O)N2CCC[C@H]2C(=O)Nc2ccccc2-c2ccccc2)nc2ccccc21
2. Cn1c(SCC(=O)N2CCC[C@H]2C(=O)Nc2ccccc2-n2cccc2)nc2ccccc21
3. O=C(Nc1ccccc1-c1ccccc1)[C@@H]1CCCN1C(=O)CCc1nc2ccccc2[nH]1
4. O=C(Nc1ccc(-c2ccccc2)cc1)[C@@H]1CCCN1C(=O)CSc1nc2ccccc2[nH]1

Response:
5
2
20
143

Lab note: each compound below needs its Activity filled in.
1. Cn1c(CCC(=O)N2CCC[C@H]2C(=O)Nc2ccccc2-n2cccc2)nc2ccccc21
2. O=C(Nc1ccccc1-c1ccccc1F)[C@@H]1CCCN1C(=O)CCc1nc2ccccc2[nH]1

Response:
[3, 4]

---

For each of the molecules below, state its Activity.
Molecular target: Orexin receptor type 2 (Homo sapiens) (UniProt O43614)
Experiment: Antagonist activity at human OX2R expressed in CHOK1 cells assessed as effect on calcium mobilization
Type: functional, cell-based
Details: CHO-K1

smiles_repr | assayed_system | Activity
O=C(Nc1ccccc1-n1cccc1)[C@@H]1CCCN1C(=O)CSc1nc2ccccc2s1 | Orexin receptor type 2 (Homo sapiens) (UniProt O43614) | 11 nM
Cc1ccc2[nH]c(SCC(=O)N3CCC[C@H]3C(=O)Nc3ccccc3-n3cccc3)nc2c1 | Orexin receptor type 2 (Homo sapiens) (UniProt O43614) | 2 nM
O=C(Nc1ccccc1-n1cccc1)[C@@H]1CCCN1C(=O)CSc1nc2ccccc2[nH]1 | Orexin receptor type 2 (Homo sapiens) (UniProt O43614) | 6 nM
O=C(Nc1ccccc1)[C@@H]1CCCN1C(=O)CSc1nc2ccccc2[nH]1 | Orexin receptor type 2 (Homo sapiens) (UniProt O43614) | 4050 nM

Now for another entry.
Request: Return reported Activity. Input molecule: O=C(Nc1ccccc1-n1cccc1)[C@@H]1CCCN1C(=O)CCc1nc2ccccc2[nH]1
Response: 36 nM

---

Target: Orexin/Hypocretin receptor type 1 (Homo sapiens, UniProt O43613)
Sequence (O43613 whole entry): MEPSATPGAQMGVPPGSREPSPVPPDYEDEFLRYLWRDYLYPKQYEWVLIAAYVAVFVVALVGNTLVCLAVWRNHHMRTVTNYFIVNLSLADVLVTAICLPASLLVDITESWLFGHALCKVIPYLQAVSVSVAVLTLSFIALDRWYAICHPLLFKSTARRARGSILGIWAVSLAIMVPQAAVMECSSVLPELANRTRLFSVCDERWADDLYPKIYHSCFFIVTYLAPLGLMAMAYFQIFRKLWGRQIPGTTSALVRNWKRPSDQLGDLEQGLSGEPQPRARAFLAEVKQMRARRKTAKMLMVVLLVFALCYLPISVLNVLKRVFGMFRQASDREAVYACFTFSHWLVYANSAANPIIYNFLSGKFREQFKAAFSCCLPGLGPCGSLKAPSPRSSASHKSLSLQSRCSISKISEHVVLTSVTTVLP
reported_endpoint: Ki (µM)
Give bare numbers, in µM.

Some solved cases for reference:
smiles_repr | assayed_system | Ki / µM
O=C(Nc1ccc(-c2ccccc2)cc1)[C@@H]1CCCN1C(=O)CSc1nc2ccccc2[nH]1 | Orexin/Hypocretin receptor type 1 (Homo sapiens, UniProt O43613) | 2.3
O=C(Nc1ccccc1-c1ccccc1)[C@@H]1CCCN1C(=O)CSc1nc2ccccc2[nH]1 | Orexin/Hypocretin receptor type 1 (Homo sapiens, UniProt O43613) | 0.01
Cc1ccc2c(c1)nc(SCC(=O)N1CCC[C@H]1C(=O)Nc1ccccc1-n1cccc1)n2C | Orexin/Hypocretin receptor type 1 (Homo sapiens, UniProt O43613) | 0.0007

Lab note: each compound below needs its Ki filled in.
1. O=C(Nc1ccccc1-n1cccc1)[C@@H]1CCCN1C(=O)CSc1nc2ccccc2o1
2. O=C(Nc1ccccc1-n1cccc1)[C@@H]1CCCN1C(=O)CSc1nc2ccccc2[nH]1

Response:
0.12
0.028
